For each of the compounds below, state its pIC50.
# System: T. cruzi-infected H9C2 cardiomyocytes, high-content imaging
# Assay: intracellular T. cruzi amastigote inhibition, imaging, H9C2 host cardiomyocytes, host toxicity (AID 1159565);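 further: infected cells incubated 72 h after plating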
# Condition Info: measured here: H9C2 host cell toxicity
pIC50: −log10 of the molar value.

Consider the reported pIC50 for these compounds:
Compound	pIC50
O=C(NCC1CCCCC1)c1cnns1	< 4.30
COc1ccc(S(=O)(=O)NCc2ccc(-c3ccc(CN(C)CCO)cc3)cc2)cc1	< 4.30
Cc1ccc2ccc(C(Nc3ccccn3)c3cccnc3)c(O)c2n1 (centres undefined)	4.49
Cn1cncc1CN1CCC2(CC1)COC(Cc1ccccc1)C2 (centres undefined)	< 4.30
Cc1c(Nc2cc(C3CC3)[nH]n2)ccc(C#N)c1Cl	5.00
N#Cc1cccc(CN2CCC(N(Cc3cccnc3)C(=O)c3cc(F)c(F)cc3F)CC2)c1	< 4.30
CC1CN(Cc2ccc(C#N)cc2)CCN1c1ccc(NC(=O)c2ccccc2F)cc1 (centres undefined)	< 4.30
O=C(CSc1nnc2ccc(-c3ccc(F)cc3)nn12)N1CCCCC1	< 4.30
CC(C(=O)Nc1ccc(Br)cc1)N1CCN(c2ccc([N+](=O)[O-])cc2)CC1 (centres undefined)	< 4.30
CN(C)CCN(C)Cc1ccc(F)cc1NS(=O)(=O)c1ccc(Cl)c(Cl)c1	5.20

Hi team, please reply with pIC50 for each item in this list.
1. CNC(=O)Oc1ccc(C(=O)NCc2ccccc2)cc1OC(=O)NC
2. CC(C)(C)c1cc(NC2CC2)nc(-c2ccccn2)n1
3. CCOc1ccc(NC(=O)c2ccc(NC(=O)NC3CCCCC3)cc2)cc1
4. COc1ccc(C(=O)N2CCC(Nc3cccnc3)C2)c(OC)n1 (centres undefined)
5. O=C(CSc1ccc(-c2ccccn2)nn1)Nc1ccc(Cl)cc1

["< 4.30", 6.49, "< 4.30", "< 4.30", "< 4.30"]
